System: NCI-H522 lung
PROTOCOL TEXT: NCI-60 one-dose screen, 48 h
EXPERIMENTAL PARAMETERS: 10 µM unless noted
This is part of a sample that, as a whole, favours compounds with a hit. Of some 83,000 tested, about 20% had one in any assay. Calls of active or inactive are those of the source. The calls were made as follows: active = growth percent below 10; inactive = the rest.
Choose the fitting class; nothing outside Y (active), N (inactive) is accepted.

molecule=C=CC1=C[C@@H]2[C@@H]3O[C@]4(CC[C@H](O4)[C@@H](C)C[C@@H](O)C3=O)C[C@H](O)C3=NCC[C@@]32CC1 assigned_label=Y
molecule=Cc1c(C)c([N+](=O)[O-])c(C)c(C)c1[N+](=O)[O-] assigned_label=N
molecule=CC[C@H](C)[C@H](NC(=O)[C@H]1CCCCN1C)C(=O)N(C)[C@H](CC(=O)c1nc(C(=O)N[C@@H](Cc2ccccc2)C[C@H](C)C(=O)O)cs1)C(C)C assigned_label=Y
molecule=COc1cc2c(cc1OCCCCn1c(-c3cccs3)nc3ccccc31)N=C[C@@H]1CCCN1C2=O assigned_label=Y
molecule="COC(=O)C1CCC(NC(=O)c2csc([C@@H](C[C@H](C(C)C)N(C)C(=O)[C@@H](NC(=O)[C@H]3CCCCN3C)C(C)C)OC(C)=O)n2)CC1 (stereo not given in full)" assigned_label=Y
molecule=COC(=O)C12CC(NC(=O)c3csc([C@@H](C[C@H](C(C)C)N(C)C(=O)[C@@H](NC(=O)[C@H]4CCCCN4C)C(C)C)OC(C)=O)n3)(C1)C2 assigned_label=Y
molecule=CC(C)=CCC/C(C)=C/C=N\N=C(/N)N[N+](=O)[O-] assigned_label=N
molecule=C=CC[n+]1ccc(-c2cc[n+](CC=C)cc2)cc1 assigned_label=N

Record lookup: outcome of this test for CC(C)(NC(=O)O[C@@H]1CN2CCC1CC2)c1csc(-c2ccc(F)cc2)n1 ? N

Record lookup: outcome of this test for CNCc1cccnc1 ? N

Record lookup: outcome of this test for NC(=S)c1cn(C2OC(CO)C(O)C2O)c2ncnc(N)c12 (stereo not given) ? Y

Record lookup: outcome of this test for COC(=O)N[C@H]1CCc2c(Br)c(OC)c(OC)c(OC)c2-c2ccc(SC)c(=O)cc21 ? Y

Record lookup: outcome of this test for CC(C)OC(=O)[C@H](C)NP(=O)(Oc1ccccc1)C1CCCN(O)C1=O (stereo not given in full) ? N

Record lookup: outcome of this test for CCN(CC)c1ccc2c(c1)OC(N)=C(C#N)C2c1cc(OC)c2c(c1)OCO2 (stereo not given) ? Y

Record lookup: outcome of this test for Cc1ccc(C(Cc2ccccc2)NCCO)cc1 (stereo not given) ? N

Record lookup: outcome of this test for COc1ccc(Nc2ccnc3cc(Cl)ccc23)cc1CN(CCCl)CCCl ? Y

* * *

For each record, write down the corresponding growth.
Test system: HL-60(TB) leukemia
PROTOCOL TEXT: NCI-60 one-dose screen, 48 h (100 = growth as untreated, 0 = no growth, -100 = all killed)
EXPERIMENTAL PARAMETERS: 10 µM unless noted
Compounds without any hit were thinned out: in the full panel of roughly 83,000, 20% have a hit. Calls of active or inactive are those of the source. Rule for the calls: active = growth percent below 10; inactive = the rest.

structure_notation=CC1(C)N=C(N)N=C(N)N1c1cccc(CCCCc2ccc(Cl)c(S(=O)(=O)F)c2)c1 assay_result="18.8% (inactive)"

Please give growth for each item listed below.
1. Cc1cc(-c2nc3cc(F)ccc3[se]2)cc(F)c1N
2. CC[C@]12C=CCN3CC[C@]4(C(=C(C(=O)OC)C1)Nc1cc(OC)c(OC(C)=O)cc14)[C@@H]32
3. CC[C@H](C)[C@H](NC(=O)[C@H]1CCCCN1C)C(=O)N(C)[C@H](C[C@@H](OC(C)=O)c1cccc(C(=O)N[C@@H](Cc2ccccc2)C[C@H](C)C(=O)O)n1)C(C)C

87.2% (inactive)
-8.44% (active)
-40% (active)
